Hello, the source for this data is patent US20220112244A1, in case you need it.

target_system: IL-17A (agonist in the IL-17RA/IL17RC dimerization assay) (UniProt Q16552 24-155)
Sequence (Q16552 24-155 limits assumed): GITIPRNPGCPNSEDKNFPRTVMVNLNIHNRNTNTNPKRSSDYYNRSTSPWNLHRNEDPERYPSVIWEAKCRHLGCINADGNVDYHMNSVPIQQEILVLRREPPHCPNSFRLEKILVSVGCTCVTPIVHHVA
measurement_description: cell-based or functional assay
property: IC50 in IL-17RA/IL7RC dimerization assay

[[record]]
binder = "Ac-VHVTIPQEIWEWVRR-NH2 [peptide of SEQ ID NO: 237]"
result = "< 10 µM"

[[record]]
binder = "Ac-IHVTIPQDLWDWINK-NH2 [peptide of SEQ ID NO: 198]"
result = "< 10 µM"

[[record]]
binder = "Ac-VRLYVPADLWDWINK-NH2 [peptide of SEQ ID NO: 244]"
result = "< 10 µM"

[[record]]
binder = "Ac-VHVTFPADLWEWFRR-NH2 [peptide of SEQ ID NO: 144]"
result = "< 0.5 µM"

[[record]]
binder = "Ac-PHVTIPADLWDWINK-NH2 [peptide of SEQ ID NO: 161]"
result = "< 10 µM"

[[record]]
binder = "Ac-VHFQFPADLWEWVRR-NH2 [peptide of SEQ ID NO: 130]"
result = "< 0.5 µM"

[[record]]
binder = "Ac-IHPTIPADLWDWINK-NH2 [peptide of SEQ ID NO: 170]"
result = "< 10 µM"

[[record]]
binder = "Ac-IHVTIPADLWDWIEK-NH2 [peptide of SEQ ID NO: 11]"
result = "< 0.4 µM"

[[record]]
binder = "Ac-IHVTIPADLWDHINK-NH2 [peptide of SEQ ID NO: 209]"
result = "< 10 µM"

[[record]]
binder = "Ac-VHVTVPQELYEWVRR-NH2 [peptide of SEQ ID NO: 226]"
result = "< 10 µM"

[[record]]
binder = "Ac-IHVTIPADLWDWKNK-NH2 [peptide of SEQ ID NO: 213]"
result = "< 10 µM"

[[record]]
binder = "Ac-IHVTIPAELWDWINK-NH2 [peptide of SEQ ID NO: 5]"
result = "< 0.1 µM"

[[record]]
binder = "Ac-IHVTIPADLWDWVNK-NH2 [peptide of SEQ ID NO: 8]"
result = "< 0.2 µM"

[[record]]
binder = "Ac-VHFQFPADLWNWVRR-NH2 [peptide of SEQ ID NO: 133]"
result = "< 0.5 µM"

[[record]]
binder = "Ac-VHVTVPQELWEWVRR-NH2 [peptide of SEQ ID NO: 224]"
result = "< 10 µM"

